tested on: Nucleic Acid; assay: Binding affinity to d(TGGGGT) quadruplex DNA by NMR analysis; format: nucleic-acid assay
Active and inactive are the calls of the source. The calls are words filed in the database; no cut-off is given here.
Could you please pick one outcome from this set? class 1 = active, class 0 = inactive

Reference set (4 entries):
> print(dat)
                                   compound  category.label
1  CCc1cc2c(=O)c(-c3nc4ccccc4s3)coc2c(CN2CCCC2)c1O         class 0
2  O=c1c(-c2nc3ccccc3s2)coc2c(CN3CCOCC3)c(O)ccc12         class 1
3  CC1CCCC(C)N1Cc1c(O)ccc2c(=O)c(-c3nc4ccccc4s3)c(N)oc12 (centres undefined)         class 1
4  Nc1oc2c(CN3CCCCCC3)c(O)ccc2c(=O)c1-c1nc2ccccc2s1         class 1

Entry O=c1c(-c2nc3ccccc3s2)coc2cc(O)ccc12 : call = ?
class 0

Entry CC1(C)C[C@H]2CN(Cc3c(O)ccc4c(=O)c(-c5nc6ccccc6s5)c(N)oc34)[C@](C)(C2)C1 : call = ?
class 0

Entry CC1CCCN(Cc2c(O)ccc3c(O)c(-c4nc5ccccc5s4)c(=N)oc23)C1 (centres undefined) : call = ?
class 1

Entry CCC1CCCCN1Cc1c(O)ccc2c(=O)c(-c3nc4ccccc4s3)coc12 (centres undefined) : call = ?
class 1

Entry CCN(CC)Cc1c(O)ccc2c(=O)c(-c3nc4ccccc4s3)coc12 : call = ?
class 1

###

system: Nucleic Acid; experiment: Binding affinity to d(TGGGGT) quadruplex DNA by chemical shift perturbation method; type: nucleic-acid assay
Activity calls are given as the source filed them. The calls are words filed in the database; no cut-off is given here.
reported-endpoint: Activity

Look over these answered cases.
> print(dat)
                               query.smiles  measured
1  O=c1oc2c(CN(CCO)CCO)c(O)ccc2cc1-c1nc2ccccc2s1    Active
2  O=c1oc2c(CN3CCN(c4ccccc4)CC3)c(O)ccc2cc1-c1nc2ccccc2s1  inactive
3  CN1CCN(Cc2c(O)ccc3cc(-c4nc5ccccc5s4)c(=O)oc23)CC1    Active
4  CCN1CCN(Cc2c(O)ccc3cc(-c4nc5ccccc5s4)c(=O)oc23)CC1    Active

# input for lookup
// returns reported Activity for input CCOC(=O)N1CCN(Cc2c(O)ccc3cc(-c4nc5ccccc5s4)c(=O)oc23)CC1
inactive

###

test system: Nucleic Acid; test: Binding affinity to d(TGGGGT) quadruplex DNA by NMR analysis; assay type: nucleic-acid assay
Active and inactive are the calls of the source. No cut-off for these calls is given here.
Could you please pick one outcome from this set? active, inactive

> print(dat)
                                   compound  category.label
1  O=c1c(-c2nc3ccccc3s2)coc2c(CN3CCCCC3)c(O)ccc12          active

Entry CCc1cc2c(=O)c(-c3nc4ccccc4s3)coc2c(CN(CC)CC)c1O : call = ?
inactive

Entry CC1CCCCN1Cc1c(O)ccc2c(=O)c(-c3nc4ccccc4s3)coc12 (stereo not given) : call = ?
active

###

tested on: Nucleic Acid; experiment: Binding affinity to d(TGGGGT) quadruplex DNA by NMR analysis; assay type: nucleic-acid assay
The source made the active and inactive calls. No cut-off for these calls is given here.
Could you please pick one outcome from this set? true for active, false for inactive

> print(dat)
                                   compound  category.label
1  Cc1oc2c(CN(C)C)c(O)ccc2c(=O)c1-c1nc2ccccc2s1           false
2  Cc1oc2c(CN3CCCC3)c(O)ccc2c(=O)c1-c1nc2ccccc2s1           false

Entry CC1CCN(Cc2c(O)ccc3c(O)c(-c4nc5ccccc5s4)c(=N)oc23)CC1 : call = ?
true

Entry CN(C)Cc1c(O)ccc2c(=O)c(-c3nc4ccccc4s3)coc12 : call = ?
true

Entry O=c1c(-c2nc3ccccc3s2)coc2c(CN3CCCC3)c(O)ccc12 : call = ?
true

Entry CC1CCN(Cc2c(O)ccc3c(=O)c(-c4nc5ccccc5s4)coc23)CC1 : call = ?
true

Entry CC1CCCN(Cc2c(O)ccc3c(=O)c(-c4nc5ccccc5s4)coc23)C1 (configuration not stated) : call = ?
true
